Assay: Phase 1 relative bioavailability study part 2: plasma pharmacokinetics of fedratinib (3-period crossover)
Assay type: in vivo, human
Details: human, plasma, po, 400 mg, Treatment 2A: single 400 mg oral, intact capsules with nutritional supplement; n = 30; read-out: Cmax, geometric mean (statistical analysis)
Readout kind: Cmax (ng/mL)
Report as a plain number; the unit ng/mL is understood.

Ask: Which value of Cmax has been reported for Cc1cnc(Nc2ccc(OCCN3CCCC3)cc2)nc1Nc1cccc(S(=O)(=O)NC(C)(C)C)c1 in the records?
Reply: 1390

----------
Assay: Phase 1 relative bioavailability study part 2: plasma pharmacokinetics of fedratinib (3-period crossover)
Type: in vivo, human
Conditions: human, plasma, po, 400 mg, Treatment 2C: 400 mg oral divided dose (2 × 100-mg capsules BID) with nutritional supplement; after the second dose; n = 30; read-out: t½, mean (SD) (converted)
Readout kind: half-life

Ask: Which value of half-life has been reported for Cc1cnc(Nc2ccc(OCCN3CCCC3)cc2)nc1Nc1cccc(S(=O)(=O)NC(C)(C)C)c1 in the records?
Reply: 96.7 h
